Each recorded value in this set is attributed to paper PMC5540273.

Tested on: DRAK1
Construct: gene STK17A
Particulars: concentration: 1 μM, replicates: in singlicate; n = 1;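 further: KINOMEscan kinase panel screen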
Examples of compounds with documented %Inh follow.
Express it in %; write the number only.

Example cases with answers are listed next.
# Compound, Unit Name, Reading
measured = [
    ("Cl.Oc1cccc(Nc2ccnc3cc(-c4ccncc4)ccc23)c1", "%", 11),
    ("CN1c2ccc(CNc3ccc(F)cc3)cc2-c2c(cnn2C)S1(=O)=O", "%", 0),
    ("Cc1nnc(-c2ccc(C)c(-c3ccc(C(=O)Nc4ccc(NS(C)(=O)=O)cc4)cc3)c2)o1", "%", 0),
]

[ask] GET /values?readout=%Inh&item= Cc1ccc(NC(=O)c2ccnc(N3CCN(C)CC3)c2)cc1-c1ccc(C(=O)NCC2CC2)cc1
[reply] 0

[ask] GET /values?readout=%Inh&item= CNc1ncnc2[nH]ncc12
[reply] 10

[ask] GET /values?readout=%Inh&item= O=c1cc(N2CCOCC2)nc2n(Cc3cccc(F)c3)ccn12
[reply] 5

[ask] GET /values?readout=%Inh&item= Cn1ccc2ncnc(Oc3ccc(NC(=O)Nc4ccncc4)c(Cl)c3)c21
[reply] 0

[ask] GET /values?readout=%Inh&item= CC(=O)Nc1ccc(COc2ccc(Nc3ccnc4cc(-c5ccccn5)ccc34)cc2)cc1.Cl
[reply] 1

[ask] GET /values?readout=%Inh&item= COc1cc(Nc2nccc(N3CCC(NC(=O)c4cccc(NC(C)=O)c4)C3)n2)cc(OC)c1OC (stereo not drawn)
[reply] 32

----------
Tested on: LZK
Construct: gene MAP3K13
Particulars: concentration: 1 μM, replicates: in singlicate; n = 1
Hi, to clarify the labels: True covers %Inh from 8% upward, False covers anything below 8%.

See these solved cases before continuing.
# Compound, Assigned Class
measured = [
    ("NS(=O)(=O)c1cccc(-c2ccc3nccc(-c4cccc(S(N)(=O)=O)c4)c3c2)c1", "False"),
    ("Nc1nccc(-c2c(-c3ccc(F)cc3)ncn2C2CCN(CC(F)(F)F)CC2)n1", "False"),
    ("Cc1c2ccc(N(C)c3ccnc(Nc4cccc(S(N)(=O)=O)c4)n3)cc2nn1Cc1ccccc1.Cl.Cl", "False"),
    ("Nc1nc(-c2ccc3c(N)n[nH]c3c2)cc(N2CCCC2)n1", "False"),
    ("Cc1c(Cn2c(C)nn3c(=O)cc(N4CCOC(C)C4)nc23)cccc1C(F)(F)F (stereo not drawn)", "False"),
    ("O=C(NOCC1CC1)c1ccc(F)c(F)c1Nc1ccc(I)cc1Cl", "False"),
]

Proceed to the following item.
[ask] Kindly determine if %Inh recorded for C[C@@H](Oc1cc(-n2cnc3ccc(NC(=O)NC(C)(C)C)cc32)sc1C(N)=O)c1ccccc1Cl is above or exactly 8%.
[reply] True

----------
System: MRCKB
Construct: gene CDC42BPB
Particulars: concentration: 1 μM, replicates: in singlicate; n = 1
Readout Label: %Inh (%)
Express it in %; write the number only.

# Molecule, Experimental System, Unit Name, %Inh
measured = [
    ("C[C@@H](Oc1cc(-n2cnc3ccc(NC(=O)NC(C)(C)C)cc32)sc1C(N)=O)c1ccccc1Cl [GSK346294]", "MRCKB", "%", 5),
    ("COCCNC(=O)c1ccc(-c2cc(C(=O)NC3CC3)cc(F)c2C)cc1 [GW868318]", "MRCKB", "%", 14),
    ("CCn1cnc2c(N)ncnc21 [GW345098]", "MRCKB", "%", 2),
    ("O=c1cc(N2CCOCC2)nc2n(Cc3cccc4ccccc34)ccn12 [GSK2333389]", "MRCKB", "%", 0),
]

Consider now this further molecule.
[ask] GET /values?readout=%Inh&item= Cc1nnc(-c2ccc(C)c(-c3ccc(C(=O)Nc4ccc(NS(C)(=O)=O)cc4)cc3)c2)o1 [GW702865]
[reply] 0
